Test system: CAL-148
Assay: drug sensitivity score (DSS), CellTiter-Glo (DSS (AUC-based score)); higher = stronger drug effect (viability inhibition or cytotoxicity); extreme values may be limits of the assay
Conditions: incubation time: 72 h
quantity.name: drug sensitivity score
One number for each entry.

The cases that follow already have their drug sensitivity score on record.
{"mol": "O=c1[nH]cc(F)c(=O)[nH]1", "number": 0}
{"mol": "Cn1cnc2c(F)c(Nc3ccc(Br)cc3F)c(C(=O)NOCCO)cc21", "number": 0}
{"mol": "FC(F)c1nc2ccccc2n1-c1nc(N2CCOCC2)nc(N2CCOCC2)n1", "number": 6.71}
{"mol": "CCOc1cc2ncc(C#N)c(Nc3ccc(OCc4ccccn4)c(Cl)c3)c2cc1NC(=O)/C=C/CN(C)C", "number": 2.61}

// moving on: another record for drug sensitivity score
Using known records, supply drug sensitivity score for CS(=O)(=O)CCNCc1ccc(-c2ccc3ncnc(Nc4ccc(OCc5cccc(F)c5)c(Cl)c4)c3c2)o1
0

Data credit: the supplement of paper PMC4862054
